Data provenance: the supplement of paper PMC10126150

Tested on: ATP;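 note: ATP exposure 15 min at 22 °C before imaging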
Experiment: switch fluorescence ratio, 500 uM ATP over buffer (Cy3 cluster intensity, sum of 5 cycles each) (fold (ratio)); higher = stronger signal-on switching upon ATP binding; sequences stand for … in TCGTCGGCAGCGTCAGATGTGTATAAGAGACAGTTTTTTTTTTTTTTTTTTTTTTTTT…TC
Conditions: aptamer strand: ATP DNA aptamer (quencher-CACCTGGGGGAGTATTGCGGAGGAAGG + anchor), 100 nM annealed; ATP concentration: 500 uM
Record form. Attribute: switch fluorescence ratio. Fill in for each entry.
Give the figure by itself; no unit, no explanation.

Please report switch fluorescence ratio for the following sequence: GTAGAAAGTA
0.973

Determine its reported switch fluorescence ratio: GCCCGTCTGA
0.985

Let me know recorded switch fluorescence ratio for CGGCGATCGG , thanks.
0.99

Specify reported switch fluorescence ratio for the sequence shown: GCTTGTACAT
0.982

Given AAAGGGGGTC , respond with its switch fluorescence ratio.
1.01

Using the record for CGAAACATGA , state its measured switch fluorescence ratio.
1.01

Annotate the sequence TGGGGAATGT with its measured switch fluorescence ratio.
1.01

Find the measured switch fluorescence ratio of GGAACTTGTG and report it.
0.973

Give switch fluorescence ratio for the following sequence: ATCGAGTAGG
1.01

Identify measured switch fluorescence ratio corresponding to GAATGACCGT
1.01

Identify measured switch fluorescence ratio associated with AATGGATTTT
0.982

Provide one value: measured switch fluorescence ratio of GTTGGATTTA
1.01

Consider the sequence CGTTTGGTGT and give its recorded switch fluorescence ratio.
1.01

Please indicate switch fluorescence ratio recorded for CAGGCTGGGC
0.986

Please supply the value of reported switch fluorescence ratio for the item CGGCATGGTG
0.98

Quote switch fluorescence ratio reported for GGTGGGGACG please.
0.974

Determine from records and report switch fluorescence ratio for AATATATTGA
0.996

// Input: GGAACCGGTA . Output its switch fluorescence ratio only.
1.02

---

Test system: ATP;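 note: ATP exposure 15 min at 22 °C before imaging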
Assay: switch fluorescence ratio, 500 uM ATP over buffer (Cy3 cluster intensity, sum of 5 cycles each) (fold (ratio)); higher = stronger signal-on switching upon ATP binding; sequences stand for … in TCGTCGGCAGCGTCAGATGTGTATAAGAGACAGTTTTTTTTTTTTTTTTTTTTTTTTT…TC
Settings: aptamer strand: ATP DNA aptamer (quencher-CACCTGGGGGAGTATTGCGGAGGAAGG + anchor), 100 nM annealed; ATP concentration: 500 uM
property-name: switch fluorescence ratio
// keep it numeric: no unit symbol after the value

Annotate the sequence TCTTGTTATT with its measured switch fluorescence ratio.
0.998

# return recorded switch fluorescence ratio for entry CGAAAGGGCT
0.989

Please give measured switch fluorescence ratio of the following entry: GTTTGTTGTT
0.982

Return value of switch fluorescence ratio for input TAAATTATTG , no commentary.
0.977

---

Tested on: ATP;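 note: ATP exposure 15 min at 22 °C before imaging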
Experiment: switch fluorescence ratio, 500 uM ATP over buffer (Cy3 cluster intensity, sum of 5 cycles each) (fold (ratio)); higher = stronger signal-on switching upon ATP binding; sequences stand for … in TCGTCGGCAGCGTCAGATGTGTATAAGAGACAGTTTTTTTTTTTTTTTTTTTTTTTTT…TC
Settings: aptamer strand: ATP DNA aptamer (quencher-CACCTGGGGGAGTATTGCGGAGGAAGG + anchor), 100 nM annealed; ATP concentration: 500 uM
property-name: switch fluorescence ratio

Report switch fluorescence ratio for AGGGGTTAGG
0.992

Dear colleague, please send me the reported switch fluorescence ratio for GCTCGGGGTA when you can.
1.02

Give recorded switch fluorescence ratio. AGCTGACAGT
0.981

Give a short answer stating reported switch fluorescence ratio for ACAGGGGTTG .
0.978

Retrieve switch fluorescence ratio measured for TTGAAAGGTG and print it.
1.29

// Input: TCGGAAGGGC . Output its switch fluorescence ratio only.
1.02

Give switch fluorescence ratio for the following sequence: CGGAATGGGG
1.02

Item CCGGGGGTCA : provide switch fluorescence ratio
1.01

Output measured switch fluorescence ratio for this item: CATTTAGGTT
0.982

Return value of switch fluorescence ratio for input AGCATGTGGT , no commentary.
1

Could you please provide reported switch fluorescence ratio for GGATACGGTG ? Thanks!
1.08

Give the reported switch fluorescence ratio for this sequence. TTTTGCAGGA
1.05

Let me know recorded switch fluorescence ratio for TCTTAAAATT , thanks.
1.01

Look up and state reported switch fluorescence ratio for ACAAGGGTTA
0.999

Provide only the value of recorded switch fluorescence ratio for ACGCCCACGT
1.22

Look up and state reported switch fluorescence ratio for ATGGGTTACG
1

Indicate the recorded switch fluorescence ratio value for this sequence: CCGTGTTTTT
0.988

Answer with reported switch fluorescence ratio of CGTTGCAGT
0.986

Annotate the sequence GCGACTGCGG with its measured switch fluorescence ratio.
0.982

Supply switch fluorescence ratio value. Item: AATCATGTGC
1

Entry CTTTTCTGAT needs its switch fluorescence ratio filled in; supply it.
0.993

Please look at this sequence and report its switch fluorescence ratio: TGTTGGGGAA
0.968

Answer with reported switch fluorescence ratio of CTCCGTGGGA
1.9

Write down switch fluorescence ratio measured for item ATAGAGATGT
0.978

Assign switch fluorescence ratio to the following record: GCCCTTGTTT
1.03

Look up switch fluorescence ratio of GGCTGTGTTT and report it.
0.981

Return switch fluorescence ratio (reported value) for this sequence: GGGAATTGTG
0.993

Look up switch fluorescence ratio of AAGCCCGAGG and report it.
0.981

Fill in switch fluorescence ratio for record ATGGTTCCCT
1.01

For the sequence GAGGACTATT , give its measured switch fluorescence ratio value.
0.999

Given GGGTCCTGGG , respond with its switch fluorescence ratio.
0.973

State, in one line, measured switch fluorescence ratio of TAAAAAAAGA
0.999

Name the recorded switch fluorescence ratio of the item AGATCTATAC in your answer.
1.02

Determine from records and report switch fluorescence ratio for AATGGGATAG
1.02

Entry AAACATGGAG needs its switch fluorescence ratio filled in; supply it.
1

Return value of switch fluorescence ratio for input ACAACAGCAC , no commentary.
1.18

Tell me switch fluorescence ratio reported for GTGGTTTGGG
0.988

For TTAAAAGGCT , write its switch fluorescence ratio.
0.997

Return the recorded switch fluorescence ratio value; entry: ATCATCTTCG
1.02

Supply switch fluorescence ratio value. Item: GTGTGCAGTG
0.954

Specify reported switch fluorescence ratio for the sequence shown: TGCAAACCTT
2.39

Provide one value: measured switch fluorescence ratio of TATGAGGAAC
1.09

Return switch fluorescence ratio for the following sequence: GCCCGTTACG
1.02

# return recorded switch fluorescence ratio for input CATAACTAAA
1

Report measured switch fluorescence ratio; entry is GCAGGGGGTC
1

Read the entry ATAGGAGAGT and write its reported switch fluorescence ratio.
1

Provide switch fluorescence ratio value for the following sequence: TTTCTTAGAG
0.992

Give reported switch fluorescence ratio value for CTCAGGAGGG
0.997

Give me measured switch fluorescence ratio, please, for this sequence: GATCACTCGT
1

Please supply the value of reported switch fluorescence ratio for the item ATAATCCTTG
1.01

Give the reported switch fluorescence ratio for this sequence. TGTTGTTATC
0.974

Please look at this sequence and report its switch fluorescence ratio: CGCCTAAACG
1.04

Read off the recorded switch fluorescence ratio for TGCTCATAGC
1.01

Determine its reported switch fluorescence ratio: AGGGTATAGA
0.987

Given the sequence TAAAGATAAG , write its reported switch fluorescence ratio.
0.98

Input TTTGCCTTTT , output reported switch fluorescence ratio.
1

Using the record for CAATGGAGAA , state its measured switch fluorescence ratio.
1.01

Read the entry GCTACTGGCA and write its reported switch fluorescence ratio.
1

Annotate the sequence AGCACGCTTT with its measured switch fluorescence ratio.
1.02

Item TGGGGTGGCA : provide switch fluorescence ratio
1.01

Read the entry CGTAATAGTC and write its reported switch fluorescence ratio.
1.81

---

Tested on: ATP;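 note: ATP exposure 15 min at 22 °C before imaging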
Assay: switch fluorescence ratio, 500 uM ATP over buffer (Cy3 cluster intensity, sum of 5 cycles each) (fold (ratio)); higher = stronger signal-on switching upon ATP binding; sequences stand for … in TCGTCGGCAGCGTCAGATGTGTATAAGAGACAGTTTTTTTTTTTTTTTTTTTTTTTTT…TC
Settings: aptamer strand: ATP DNA aptamer (quencher-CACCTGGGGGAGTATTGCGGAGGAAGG + anchor), 100 nM annealed; ATP concentration: 500 uM
I'd appreciate it if you could supply switch fluorescence ratio values for the items below.
Keep it simple and answer with nothing but the number.

# return recorded switch fluorescence ratio for entry GCGTAAGGCC
1.14

For the sequence CGAAGGGTAA , give its measured switch fluorescence ratio value.
1.02

For the sequence TTTTGGTTTG , give its measured switch fluorescence ratio value.
1

// fetch switch fluorescence ratio given entry AGGAGTTATG
1.01

For TGTGCAAAGG , write its switch fluorescence ratio.
0.997

Specify measured switch fluorescence ratio for GTGACTTCAA .
1.03

Tell me its switch fluorescence ratio given GATAATTTTT as the entry.
0.988

Note switch fluorescence ratio for the sequence shown: TGTTAGATTT
1.05
